test-details: Cytotoxicity, alamarBlue, murine macrophages
Format: cell-based
experimental-setup: mouse, J774A.1 murine macrophage cell line, J774A.1 murine macrophages, mean ± SD
property-name: CC50 at 24 h (µM)
Respond with the bare value in µM.

> print(dat)
                                   compound  measured
1  N#C/C=C\C(=O)Oc1ccccc1 [Compound Q8, (Z)-phenyl 3-cyanoacrylate]      52.9

N#C/C=C/C(=O)CCc1ccccc1 [Compound Q17, (E)-4-Oxo-6-phenylhex-2-enenitrile] has a reported CC50 at 24 h of 5.24

CCOC(=O)/C=C/C#N [Compound Q3, (E)-Ethyl 3-cyanoacrylate] has a reported CC50 at 24 h of 86.7

N#C/C=C\C(=O)c1ccccc1 [Compound Q12, (Z)-4-Oxo-4-phenylbut-2-enenitrile] has a reported CC50 at 24 h of 7.64
